T1/2 values for the binders below.
Target: T1, hGDF11 homodimer (human, UniProt O95390 299-407)
T1 sequence (looked up): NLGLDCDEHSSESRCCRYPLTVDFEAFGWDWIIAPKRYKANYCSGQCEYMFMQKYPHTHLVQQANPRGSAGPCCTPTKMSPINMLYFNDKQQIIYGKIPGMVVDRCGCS
Experiment: SPR, antibody captured, 25 nM antigen
endpoint-label: T1/2 (min)

>>> measured("21-A2 (antibody, V domains shown) VH: QVQLVQSGGGLVQPGGSLRLSCAASGFTFNTYAISWVRQAPGKGLEWVSTITGSGYNTYYADSVKGRFTISRDNSKNTLYLQMSSLRAEDTAVFYCAKDSRYNWNYGIFDYWGQGTTVTVSS VL: DIQMTQSPATLSVSPGERATLSCRASQSVSSNLAWYHQKPGQAPRLLIYGVSTRATGIPARFSGNGSGTEFTLTISSLQSEDFAVYYCQQHNNWPLTFGGGTKVEIKR")
21
>>> measured("1H4-5 (antibody, V domains shown) VH: QVQLVESGGDVVQPGRSLRLSCTASGFTFSSYGMHWVRQAPGRGLEWVAVISFDGKNKYYADSVKGRFTVSRDNSKNTLFLQMNSLRAEDTALYYCAKRIAATGYYYFYGLDVWGQGTTVTVSS VL: EIMMTQSPATLSVSPGERGTLSCRASQSVSSNLAWYQQKPGQAPRLLIYGASTRASGIPARFSGSGSGTEFTLTVSSLQSEDFAVYYCQQYNNWPLTFGGGTKVEIK")
24
>>> measured("8D12-1 (antibody, V domains shown, probably the same antibody as 8D12) VH: QVQLVESGGGVVQPGRSLRLSCAASGFTFSRYGIHWVRQAPGKGLEWVAVISYDGSDEYYVDSVKGRFSISRDNSKNTLYLQMNSLRPADSAVYYCVKGDLELGFDYWGQGTLVTVSS VL: DIVMTQAAPSIPVIPGESVSMSCRSSKSLLYSNGHTYVYWFVQRPGQSPQLLIYRMSNLASGVPDRFSGSGSGTAFTLRISRVEAEDVGVYYCMQNLEFPLTFGAGTKLELK")
23

These entries and their values trace back to patent US20160340421A1.
